test system: CDK4; conditions: concentration: 1 μM,replicates: in singlicate; n = 1;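 note: KINOMEscan kinase panel screen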
Exam item: assign T to entries whose %Inh is below 5% and F to entries at or above 5%. Note that a value of exactly 5% receives F.

> print(dat)
                         compound.structure  class
1  CN(c1ccccc1CNc1nc(Nc2ccc3c(c2)CC(=O)N3)ncc1C(F)(F)F)S(C)(=O)=O      T

# input Dear reviewer, please state whether O=C(NCC1CC1)c1ccc(-c2cc(C(=O)NC3CC3)ccc2F)cc1 has %Inh strictly beneath 5%.
# output T

# input Dear reviewer, please state whether O=C(NOCC1CC1)c1cc(Br)c(F)c(F)c1Nc1ccc(I)cc1Cl has %Inh strictly beneath 5%.
# output F

# input Dear reviewer, please state whether COc1cc2ncn(-c3cc(OCC4CCCCC4)c(C(N)=O)s3)c2cc1OC has %Inh strictly beneath 5%.
# output F

# input Dear reviewer, please state whether CN1CCN(CCNc2nc3cc(Oc4ccc(NC(=O)Nc5cc(C(F)(F)F)ccc5F)cc4)ccc3[nH]2)CC1.Cl.Cl has %Inh strictly beneath 5%.
# output T

# input Dear reviewer, please state whether CCCC(=O)Nc1n[nH]c2ncccc12 has %Inh strictly beneath 5%.
# output T

# input Dear reviewer, please state whether C[C@@H](Oc1cc(-n2cnc3ccc(-c4ccncc4)cc32)sc1C(N)=O)c1ccccc1Cl has %Inh strictly beneath 5%.
# output F

* * *

system: FGFR4; settings: concentration: 1 μM,replicates: in singlicate; n = 1
observable: %Inh (%)
Form entry: value (%) — number only.

// below: answered compounds
> print(dat)
                                   compound  target.or.test.system  observable  value.observed
1    CS(=O)(=O)Nc1ccc(-c2ccnc3[nH]ccc23)cc1                  FGFR4        %Inh               8
2  CCNCC(Cc1ccccc1)NC(=O)c1cc(Br)c(-c2ccnc3[nH]ccc23)s1.Cl.Cl (stereo not shown)                  FGFR4        %Inh              68
3  Cn1ccc2ncnc(Oc3ccc(NC(=O)Nc4cccc(C(F)(F)F)c4)c(F)c3)c21                  FGFR4        %Inh               3

# input Bench note: what %Inh did CN1CCN(CCCNc2nccc(-c3c(-c4ccc(F)cc4)nn4cc(C(N)=O)ccc34)n2)CC1 show?
# output 0

* * *

system: KIT; settings: concentration: 1 μM,replicates: in singlicate; n = 1
%Inh for assorted compounds
Form entry: value (%) — number only.

# input Bench note: what %Inh did COc1ccc(Nc2nccc(N3CCC(NC(=O)c4cccc(C#N)c4)C3)n2)cc1 (centres unmarked) show?
# output 0

# input Bench note: what %Inh did CS(=O)c1ccc(-c2coc3ccc(-c4n[nH]c(=O)o4)cc23)cc1 (centres unmarked) show?
# output 0

# input Bench note: what %Inh did CCOC(=O)N1CCC(n2cnc(-c3ccc(F)cc3)c2-c2ccnc(N)n2)CC1 show?
# output 40

# input Bench note: what %Inh did CN(c1ccc2c(c1)nc(NCc1ccc(F)cc1)n2C)c1ccnc(Nc2ccc(CS(C)(=O)=O)cc2)n1.Cl show?
# output 99.9

# input Bench note: what %Inh did O=C(Nc1cccc(Oc2ccc3nccn3n2)c1)Nc1cccc(C(F)(F)F)c1 show?
# output 100

# input Bench note: what %Inh did C[C@@H](Oc1cc(-n2cnc3cc(-c4ccncc4)ccc32)sc1C(N)=O)c1ccccc1Cl show?
# output 64

# input Bench note: what %Inh did COc1cccc(CNC(=O)NC2CCN(c3ccnc(Nc4cc(OC)c(OC)c(OC)c4)n3)C2)c1 (centres unmarked) show?
# output 60

# input Bench note: what %Inh did CS(=O)(=O)Nc1ccc(-c2ccnc3[nH]ccc23)cc1 show?
# output 59

# input Bench note: what %Inh did Cn1ccc2ncnc(Oc3ccc(NC(=O)Nc4cnn(C(C)(C)C)c4)c(Cl)c3)c21 show?
# output 99.8

# input Bench note: what %Inh did CCn1c(-c2nonc2N)nc2cncc(Br)c21 show?
# output 32

# input Bench note: what %Inh did Cn1cc(-c2cccc3c(N)c(C(N)=O)nnc23)cn1 show?
# output 5

# input Bench note: what %Inh did c1ccc(Oc2ccc(Nc3ccnc4ccc(-c5ccccn5)cc34)cc2)cc1 show?
# output 45

# input Bench note: what %Inh did Cc1ccc2c(-c3ccnc(Nc4ccc(C(F)(F)F)cc4)n3)cnn2n1 show?
# output 78

# input Bench note: what %Inh did CC(=O)Nc1ccc(-c2cc3ncnc(SCC(=O)O)c3s2)cc1 show?
# output 79

# input Bench note: what %Inh did Cl.c1ccc(Oc2ccc(Nc3ccnc4cc(-c5ccc(CN6CCNCC6)o5)ccc34)cc2)nc1 show?
# output 87

# input Bench note: what %Inh did CNC(=O)c1ccccc1Nc1nc(Nc2cccc(CS(C)(=O)=O)c2)ncc1C.O=CO show?
# output 97.8

# input Bench note: what %Inh did COc1cccc(OC)c1C(=O)Nc1cccc(-c2nn3ccccc3c2-c2ccnc(Nc3cccc(F)c3)n2)c1 show?
# output 90.9
